# System: ANGPTL3 gene
# ASSAY COMMENT: ANGPTL3 gRNA/SpCas9 editing in primary human hepatocytes (Table 3)
# Assay type: cell-based
# Description: In set of experiments, PCSK9 gRNAs were co-transfected with an equivalent amount (1:1 ratio by weight) of in vitro transcribed commercially available SpCas9 mRNA MS002 purchased from TriLink Biotechnologies into primary human hepatocytes at 2500, 500, or 100 ng/RNA/mL and processed as described in detailed methods. Extracted genomic DNA was analyzed for gene editing at the target site with next-generation sequencing of PCR amplicons generated around the target sites. […]
For each record, write down the corresponding Human Primary Hepatocyte Editing % 100 ng/ml.
Give bare numbers, in %.

Example cases with answers are listed next.
Need Human Primary Hepatocyte Editing % 100 ng/ml, item GA113: ANGPTL3 gRNA; protospacer ATTCTGGAGGAAATAACTAG (SEQ ID NO: 111) (nucleic acid, 2'-O-methyl at 1, 2, other sugars, backbone and T or U not given here; further chemistry not fully specified) guide: AUTCTGGAGGAAATAACTAGGTTTTAGAGCTAGAAATAGCAAGTTAAAATAAGGCTAGTCCGTTATCAACTTGAAAAAGTGGCACCGAGTCGGTGCTTTT
6.00

Need Human Primary Hepatocyte Editing % 100 ng/ml, item GA122: ANGPTL3 gRNA; protospacer CTTTTATTTGACTATGCTGT (SEQ ID NO: 120) (nucleic acid, 2'-O-methyl at 1, 2, other sugars, backbone and T or U not given here; further chemistry not fully specified) guide: CUTTTATTTGACTATGCTGTGTTTTAGAGCTAGAAATAGCAAGTTAAAATAAGGCTAGTCCGTTATCAACTTGAAAAAGTGGCACCGAGTCGGTGCTTTT
4.45

Turning now to a further molecule:
Need Human Primary Hepatocyte Editing % 100 ng/ml, item GA107: ANGPTL3 gRNA; protospacer AGCCAATGGCCTCCTTCAGT (SEQ ID NO: 105) (nucleic acid, 2'-O-methyl at 1, 2, other sugars and backbone not given here; further chemistry not fully specified) guide: AGCCAATGGCCTCCTTCAGTGTTTTAGAGCTAGAAATAGCAAGTTAAAATAAGGCTAGTCCGTTATCAACTTGAAAAAGTGGCACCGAGTCGGTGCTTTT
3.72
